target: Oxysterols receptor LXR-alpha (Homo sapiens)
Sequence (Q13133 whole entry): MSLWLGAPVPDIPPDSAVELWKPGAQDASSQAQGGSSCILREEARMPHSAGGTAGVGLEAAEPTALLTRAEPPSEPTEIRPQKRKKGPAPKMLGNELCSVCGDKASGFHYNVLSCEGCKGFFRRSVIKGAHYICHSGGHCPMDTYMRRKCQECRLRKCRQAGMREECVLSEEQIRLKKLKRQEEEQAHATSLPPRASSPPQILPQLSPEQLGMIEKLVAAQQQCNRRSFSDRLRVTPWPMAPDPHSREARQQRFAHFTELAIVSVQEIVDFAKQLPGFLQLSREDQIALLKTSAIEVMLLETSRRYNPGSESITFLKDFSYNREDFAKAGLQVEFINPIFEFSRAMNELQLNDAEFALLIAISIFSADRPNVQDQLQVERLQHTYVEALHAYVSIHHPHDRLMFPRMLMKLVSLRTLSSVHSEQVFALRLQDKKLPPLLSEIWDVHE
API: label(entry) gives met if the entry's IC50 is strictly smaller than 80 nM; on equality or larger values it gives not met.

compoundString | class
CCCc1c(OCCCn2ccc3cc(CCC(=O)O)ccc32)ccc2c(C(F)(F)F)noc12 | met
CCCc1c(OCCCN(C)c2ccccc2)ccc2c(C(F)(F)F)noc12 | not met
CCCc1c(OCCCOc2ccc(CC(=O)O)cc2Cl)ccc2c(C(F)(F)F)noc12 | met
CCCc1c(OCCCN(C)c2cccc(CC(=O)O)c2)ccc2c(C(F)(F)F)noc12 | not met
